# assay_text: UTs concentration and renal uptake ratio detection in WT and KO rats
# Type: in vivo, rat
# test_conditions: 4W and/or 7W rats, n = 7
result_type: renal uptake ratio of endogenous UT, KO compared with WT rats

Study these solved cases before continuing.
| compound | result |
| --- | --- |
| Nc1ccccc1C(=O)C[C@@H](N)C(=O)O [D-kynurenine] | obviously decreased |
| CCc1ccc(OS(=O)(=O)[O-])cc1.[K+] [4-ethylphenyl sulfate] | obviously decreased |
| O=C(O)CNC(=O)C=Cc1ccccc1 [N-(cinnamoyl)glycine] | much higher |
| OC[C@H]1O[C@@H](Oc2c[nH]c3ccccc23)[C@H](O)[C@@H](O)[C@@H]1O [3-indolyl-β-D-glucopyranoside] | obviously decreased |
| N[C@@H](CCCCNCC(=O)O)C(=O)O [N6-(carboxymethyl)-l-lysine] | obviously decreased |

Record renal uptake ratio of endogenous UT, KO compared with WT rats per entry; entries follow.
1. CC(=O)Nc1ccn([C@@H]2O[C@H](CO)[C@@H](O)[C@H]2O)c(=O)n1 [N-acetylcytidine]
2. O=C(O)[C@H]1O[C@@H](Oc2ccccc2)[C@H](O)[C@@H](O)[C@@H]1O [phenyl-β-D-glucuronide]
3. O=S(=O)([O-])Oc1c[nH]c2ccccc12.[K+] [3-indoxyl sulfate potassium salt]
4. O=c1[nH]c(=O)c2[nH]c(=O)[nH]c2[nH]1 [uric acid]

1: obviously decreased; 2: much higher; 3: obviously decreased; 4: obviously decreased

----------
# assay_text: UTs concentration and renal uptake ratio detection in WT and KO rats
# Type: in vivo, rat
# test_conditions: 4W and/or 7W rats, n = 7
Structures can show the parent of a compound that is named as a salt.
result_type: renal uptake ratio of endogenous UT, KO compared with WT rats

Study these solved cases before continuing.
| molecule | result |
| --- | --- |
| O=C(O)c1cc(=O)[nH]c(=O)[nH]1 | obviously decreased |
| CC(=O)N[C@@H](CCCN=C(N)N)C(=O)O | obviously decreased |
| O=C(O)CNC(=O)c1ccccc1 | obviously decreased |
| Cc1ccc(OS(=O)(=O)O)cc1 [p-cresol sulfate] | obviously decreased |

Recorded renal uptake ratio of endogenous UT, KO compared with WT rats of Cn1cnc2c(ncn2[C@@H]2O[C@H](CO)[C@@H](O)[C@H]2O)c1=O , please. obviously decreased

----------
# assay_text: UTs concentration and renal uptake ratio detection in WT and KO rats
# Assay type: in vivo, rat
# test_conditions: 4W and/or 7W rats, n = 7
Where a name gives a salt, the structure may show the parent alone.
result_type: plasma concentration of endogenous UT, KO compared with WT rats

Study these solved cases before continuing.
| compound | result |
| --- | --- |
| Cn1cnc2c(ncn2[C@@H]2O[C@H](CO)[C@@H](O)[C@H]2O)c1=O | significantly increased |
| O=S(=O)([O-])Oc1c[nH]c2ccccc12.[K+] [3-indoxyl sulfate potassium salt] | significantly increased |
| CCc1ccc(OS(=O)(=O)[O-])cc1.[K+] [4-ethylphenyl sulfate] | significantly increased |
| O=C(O)c1cc(=O)[nH]c(=O)[nH]1 | significantly increased |
| Nc1ccccc1C(=O)C[C@@H](N)C(=O)O | significantly increased |
| O=C(O)CNC(=O)C=Cc1ccccc1 | significantly lower |
| O=c1[nH]c(=O)c2[nH]c(=O)[nH]c2[nH]1 | significantly increased |
| O=C(O)CNC(=O)c1ccccc1 | significantly increased |

Record plasma concentration of endogenous UT, KO compared with WT rats per entry; entries follow.
1. Cc1ccc(O[C@@H]2O[C@H](C(=O)O)[C@@H](O)[C@H](O)[C@H]2O)cc1 [p-cresol glucuronide]
2. Cc1ccc(OS(=O)(=O)O)cc1 [p-cresol sulfate]

significantly lower
significantly increased

Recorded plasma concentration of endogenous UT, KO compared with WT rats of CC(=O)Nc1ccn([C@@H]2O[C@H](CO)[C@@H](O)[C@H]2O)c(=O)n1 , please. significantly increased
